# METHOD_SUMMARY: melting temperature; fluorescence melt of hairpins on a sequencing array, two-state fit, raised by 9.35 °C to match UV melts
# CONDITION_CONTEXT: sodium 0.088 M
ENDPOINT_LABEL: Tm (°C)
One number for each entry, in °C.

Record excerpt, results attached:
- ITEM_SEQUENCE: "GCGAGGGCTCGC ((((....))))"
  Tm, °C: 51
- ITEM_SEQUENCE: "GATCATGCGAAAGCAATC (((..(((....))))))"
  Tm, °C: 22.5
- ITEM_SEQUENCE: "GGGGTGACGAAAGTCCCC (((..(((....))))))"
  Tm, °C: 56
- ITEM_SEQUENCE: "GCGTGGACGAAAGTCCGC (((..(((....))))))"
  Tm, °C: 52.8
- ITEM_SEQUENCE: "GTTCTGCGAAAGCACAAC (((.(((....))).)))"
  Tm, °C: 33.3

Ask: Hello, please tell me recorded Tm for this one: GATCTCTACGGAGATC ((((((....))))))
Reply: 55.6
